Task for the reader: assign each of the following compounds its reported Activity.
target: Cyclin-dependent kinase 2 (Homo sapiens) (UniProt P24941); experiment: Inhibition of GST-tagged CDK2/cyclinE (unknown origin) expressed in Sf9 cells assessed as residual activity using histone H1 as substrate in presence of ATP and Ci(gamma33-P) ATP at 1 uM measured by microplate reader assay
Answers are plain numbers, in %.

{"inputSmiles": "COc1ccc(Cn2cnc3c(Nc4ccc(C(=O)N5CCOCC5)cc4)nc(-c4cccc(NC(=O)c5ccc(C(C)(C)C)cc5)c4C)cc32)cc1", "targetOrTestSystem": "Cyclin-dependent kinase 2 (Homo sapiens) (UniProt P24941)", "Activity, %": 96.7}
{"inputSmiles": "Cc1c(NC(=O)c2ccccc2)cccc1-c1cc2[nH]cnc2c(Nc2ccc(C(=O)N3CCOCC3)cc2)n1", "targetOrTestSystem": "Cyclin-dependent kinase 2 (Homo sapiens) (UniProt P24941)", "Activity, %": 85.2}
{"inputSmiles": "Cc1c(NC(=O)c2c[nH]cn2)cccc1-c1cc2[nH]cnc2c(Nc2ccc(C(=O)N3CCOCC3)cc2)n1", "targetOrTestSystem": "Cyclin-dependent kinase 2 (Homo sapiens) (UniProt P24941)", "Activity, %": 94.6}

Let us examine a further case.
Form field: reported Activity of "Cc1c(NC(=O)c2ncc[nH]2)cccc1-c1cc2[nH]cnc2c(Nc2ccc(C(=O)N3CCOCC3)cc2)n1"
93.6
